Cited source for all entries: patent US20110318768A1

Tested on: HCC1954 breast cancer cell line
test_method_notes: Growth inhibition by lapatinib (Cell Titer-Glo)
Type: cell-based
particulars: Homo sapiens, read-out: Reference example 1 Sensitivity to lapatinib

>  <molecule>
CS(=O)(=O)CCNCc1ccc(-c2ccc3ncnc(Nc4ccc(OCc5cccc(F)c5)c(Cl)c4)c3c2)o1 [lapatinib]

>  <tgt>
HCC1954 breast cancer cell line

>  <IC50>
≥ 1 µM

$$$$

----------
Tested on: MDA-MB-231 breast cancer cell line
test_method_notes: Growth inhibition by lapatinib (Cell Titer-Glo)
Type: cell-based
particulars: Homo sapiens, read-out: Reference example 1 Sensitivity to lapatinib
pIC50: −log10 of the molar value.
observable: pIC50

>  <molecular_string>
CS(=O)(=O)CCNCc1ccc(-c2ccc3ncnc(Nc4ccc(OCc5cccc(F)c5)c(Cl)c4)c3c2)o1

>  <assay_value>
≤ 6.00

$$$$

----------
Test system: MDA-MB-415 breast cancer cell line
test_method_notes: Growth inhibition by lapatinib (Cell Titer-Glo)
Type: cell-based
particulars: Homo sapiens, 72 hours culture, read-out: IC50
pIC50: −log10 of the molar value.

>  <molecular_string>
CS(=O)(=O)CCNCc1ccc(-c2ccc3ncnc(Nc4ccc(OCc5cccc(F)c5)c(Cl)c4)c3c2)o1

>  <pIC50>
< 5.00

$$$$

----------
Tested on: tyrosine kinase in cell membrane fraction of BT-483
test_method_notes: Tyrosine kinase activity inhibition rate in cell membrane fraction (Poly-Glu4-Tyr substrate)
Format: biochemical
particulars: 25 μM kinase inhibitor, 25 μM ATP

>  <compound>
CN1CCC(Nc2ncc3ncnc(Nc4ccc(F)c(Cl)c4)c3n2)CC1 [Inhibitor 2]

>  <unit_string>
%

>  <Inhibition rate>
40.3

$$$$
>  <compound>
COc1cc2ncnc(Nc3ccc(OCc4ccccc4)cc3)c2cc1OC [Inhibitor 3]

>  <unit_string>
%

>  <Inhibition rate>
68.5

$$$$
>  <compound>
CN(C)c1cc2c(Nc3ccc4c(cnn4Cc4ccccc4)c3)ncnc2cn1 [Inhibitor 4]

>  <unit_string>
%

>  <Inhibition rate>
52.7

$$$$
>  <compound>
CCCNC(=O)Nc1ccc(Oc2ncnc3cc(OC)c(OC)cc23)cc1Cl [Inhibitor 7]

>  <unit_string>
%

>  <Inhibition rate>
17.3

$$$$
>  <compound>
Cc1[nH]c(/C=C2\C(=O)Nc3ccc(S(=O)(=O)N(C)c4cccc(Cl)c4)cc32)c(C)c1C(=O)N1CCN(C)CC1 [Inhibitor 9]

>  <unit_string>
%

>  <Inhibition rate>
68.6

$$$$
>  <compound>
COc1cc2c(cc1OC)-c1[nH]nc(Nc3cccc(F)c3)c1C2 [Inhibitor 6]

>  <unit_string>
%

>  <Inhibition rate>
62.9

$$$$
>  <compound>
Cc1cc(F)c(Nc2ncnc3cc(OCc4ccccc4)ccc23)cc1O.Cl [Inhibitor 8]

>  <unit_string>
%

>  <Inhibition rate>
27.2

$$$$
>  <compound>
COc1cc2ncnc(Nc3ccc(Oc4ccccc4)cc3)c2cc1OC [Inhibitor 10]

>  <unit_string>
%

>  <Inhibition rate>
78.5

$$$$
>  <compound>
CS(=O)(=O)CCNCc1nc(-c2ccc3ncnc(Nc4ccc(OCc5cccc(F)c5)c(Cl)c4)c3c2)cs1.Cl.Cl [Inhibitor 5]

>  <unit_string>
%

>  <Inhibition rate>
66.9

$$$$
>  <compound>
COc1cc2ncnc(Nc3cccc(Cl)c3)c2cc1OC [Inhibitor 1]

>  <unit_string>
%

>  <Inhibition rate>
54.7

$$$$

----------
Test system: tyrosine kinase in cell membrane fraction of BT-20
test_method_notes: Tyrosine kinase activity inhibition rate in cell membrane fraction (Poly-Glu4-Tyr substrate)
Assay type: biochemical
particulars: 25 μM kinase inhibitor, 25 μM ATP

>  <molecular_string>
CCCNC(=O)Nc1ccc(Oc2ncnc3cc(OC)c(OC)cc23)cc1Cl

>  <tgt>
tyrosine kinase in cell membrane fraction of BT-20

>  <Inhibition rate [%]>
2.3

$$$$
>  <molecular_string>
COc1cc2ncnc(Nc3cccc(Cl)c3)c2cc1OC

>  <tgt>
tyrosine kinase in cell membrane fraction of BT-20

>  <Inhibition rate [%]>
47.2

$$$$
>  <molecular_string>
Cc1cc(F)c(Nc2ncnc3cc(OCc4ccccc4)ccc23)cc1O.Cl

>  <tgt>
tyrosine kinase in cell membrane fraction of BT-20

>  <Inhibition rate [%]>
18.5

$$$$
>  <molecular_string>
CN(C)c1cc2c(Nc3ccc4c(cnn4Cc4ccccc4)c3)ncnc2cn1

>  <tgt>
tyrosine kinase in cell membrane fraction of BT-20

>  <Inhibition rate [%]>
32.4

$$$$
>  <molecular_string>
CN1CCC(Nc2ncc3ncnc(Nc4ccc(F)c(Cl)c4)c3n2)CC1

>  <tgt>
tyrosine kinase in cell membrane fraction of BT-20

>  <Inhibition rate [%]>
18.9

$$$$
>  <molecular_string>
CS(=O)(=O)CCNCc1nc(-c2ccc3ncnc(Nc4ccc(OCc5cccc(F)c5)c(Cl)c4)c3c2)cs1.Cl.Cl

>  <tgt>
tyrosine kinase in cell membrane fraction of BT-20

>  <Inhibition rate [%]>
56.3

$$$$
>  <molecular_string>
COc1cc2c(cc1OC)-c1[nH]nc(Nc3cccc(F)c3)c1C2

>  <tgt>
tyrosine kinase in cell membrane fraction of BT-20

>  <Inhibition rate [%]>
28.1

$$$$
>  <molecular_string>
COc1cc2ncnc(Nc3ccc(Oc4ccccc4)cc3)c2cc1OC

>  <tgt>
tyrosine kinase in cell membrane fraction of BT-20

>  <Inhibition rate [%]>
56.6

$$$$
>  <molecular_string>
COc1cc2ncnc(Nc3ccc(OCc4ccccc4)cc3)c2cc1OC

>  <tgt>
tyrosine kinase in cell membrane fraction of BT-20

>  <Inhibition rate [%]>
42.2

$$$$
>  <molecular_string>
Cc1[nH]c(/C=C2\C(=O)Nc3ccc(S(=O)(=O)N(C)c4cccc(Cl)c4)cc32)c(C)c1C(=O)N1CCN(C)CC1

>  <tgt>
tyrosine kinase in cell membrane fraction of BT-20

>  <Inhibition rate [%]>
51.4

$$$$

----------
System: BT-474 breast cancer cell line
test_method_notes: Growth inhibition by lapatinib (Cell Titer-Glo)
Type: cell-based
particulars: Homo sapiens, 72 hours culture, read-out: IC50

>  <molecular_string>
CS(=O)(=O)CCNCc1ccc(-c2ccc3ncnc(Nc4ccc(OCc5cccc(F)c5)c(Cl)c4)c3c2)o1

>  <IC50>
80 nM

$$$$

----------
Tested on: tyrosine kinase in cell membrane fraction of BT-474
test_method_notes: Tyrosine kinase activity inhibition rate in cell membrane fraction (Poly-Glu4-Tyr substrate)
Assay type: biochemical
particulars: 25 μM kinase inhibitor, 25 μM ATP
Property: Inhibition rate; scope: individual compounds
observable: Inhibition rate (%)

>  <molecular_string>
COc1cc2ncnc(Nc3cccc(Cl)c3)c2cc1OC

>  <observable>
Inhibition rate

>  <assay_value>
26.0

$$$$
>  <molecular_string>
COc1cc2ncnc(Nc3ccc(Oc4ccccc4)cc3)c2cc1OC

>  <observable>
Inhibition rate

>  <assay_value>
37.6

$$$$
>  <molecular_string>
CS(=O)(=O)CCNCc1nc(-c2ccc3ncnc(Nc4ccc(OCc5cccc(F)c5)c(Cl)c4)c3c2)cs1.Cl.Cl

>  <observable>
Inhibition rate

>  <assay_value>
42.7

$$$$
>  <molecular_string>
CN(C)c1cc2c(Nc3ccc4c(cnn4Cc4ccccc4)c3)ncnc2cn1

>  <observable>
Inhibition rate

>  <assay_value>
24.6

$$$$
>  <molecular_string>
CN1CCC(Nc2ncc3ncnc(Nc4ccc(F)c(Cl)c4)c3n2)CC1

>  <observable>
Inhibition rate

>  <assay_value>
10.5

$$$$
>  <molecular_string>
COc1cc2ncnc(Nc3ccc(OCc4ccccc4)cc3)c2cc1OC

>  <observable>
Inhibition rate

>  <assay_value>
15.1

$$$$
>  <molecular_string>
COc1cc2c(cc1OC)-c1[nH]nc(Nc3cccc(F)c3)c1C2

>  <observable>
Inhibition rate

>  <assay_value>
30.7

$$$$
>  <molecular_string>
Cc1cc(F)c(Nc2ncnc3cc(OCc4ccccc4)ccc23)cc1O.Cl

>  <observable>
Inhibition rate

>  <assay_value>
18.0

$$$$
>  <molecular_string>
Cc1[nH]c(/C=C2\C(=O)Nc3ccc(S(=O)(=O)N(C)c4cccc(Cl)c4)cc32)c(C)c1C(=O)N1CCN(C)CC1

>  <observable>
Inhibition rate

>  <assay_value>
54.6

$$$$
>  <molecular_string>
CCCNC(=O)Nc1ccc(Oc2ncnc3cc(OC)c(OC)cc23)cc1Cl

>  <observable>
Inhibition rate

>  <assay_value>
30.3

$$$$

----------
We begin with a simple list: items and their reported Inhibition rate.
System: tyrosine kinase in cell membrane fraction of MDA-MB-468
test_method_notes: Tyrosine kinase activity inhibition rate in cell membrane fraction (Poly-Glu4-Tyr substrate)
Format: biochemical
particulars: 25 μM kinase inhibitor, 25 μM ATP
observable: Inhibition rate

>  <molecular_string>
COc1cc2c(cc1OC)-c1[nH]nc(Nc3cccc(F)c3)c1C2

>  <assay_value>
1.4%

$$$$
>  <molecular_string>
COc1cc2ncnc(Nc3cccc(Cl)c3)c2cc1OC

>  <assay_value>
77.4%

$$$$
>  <molecular_string>
COc1cc2ncnc(Nc3ccc(Oc4ccccc4)cc3)c2cc1OC

>  <assay_value>
81.0%

$$$$
>  <molecular_string>
COc1cc2ncnc(Nc3ccc(OCc4ccccc4)cc3)c2cc1OC

>  <assay_value>
76.9%

$$$$
>  <molecular_string>
CN1CCC(Nc2ncc3ncnc(Nc4ccc(F)c(Cl)c4)c3n2)CC1

>  <assay_value>
52.1%

$$$$
>  <molecular_string>
CCCNC(=O)Nc1ccc(Oc2ncnc3cc(OC)c(OC)cc23)cc1Cl

>  <assay_value>
18.5%

$$$$
>  <molecular_string>
Cc1cc(F)c(Nc2ncnc3cc(OCc4ccccc4)ccc23)cc1O.Cl

>  <assay_value>
7.1%

$$$$
>  <molecular_string>
Cc1[nH]c(/C=C2\C(=O)Nc3ccc(S(=O)(=O)N(C)c4cccc(Cl)c4)cc32)c(C)c1C(=O)N1CCN(C)CC1

>  <assay_value>
65.0%

$$$$
>  <molecular_string>
CN(C)c1cc2c(Nc3ccc4c(cnn4Cc4ccccc4)c3)ncnc2cn1

>  <assay_value>
71.6%

$$$$
>  <molecular_string>
CS(=O)(=O)CCNCc1nc(-c2ccc3ncnc(Nc4ccc(OCc5cccc(F)c5)c(Cl)c4)c3c2)cs1.Cl.Cl

>  <assay_value>
75.4%

$$$$
